The values you see were collected from patent US3965109A.

# System: Xanthomonas malvacearum
# MEASUREMENT_NOTES: Antibacterial agar test (B3)
# Type: cell-based
# TEST_SETTINGS: 50 ppm; 5 days
RECORDED_METRIC: Antibacterial activity grading B3

>>> df
                                   molecule  endpoint_result
0  N#Cc1c(F)c(F)c(Nc2c(Cl)c(F)nc(F)c2Cl)c(F)c1F [Compound 19]       3 (0 to 5)

Recorded Antibacterial activity grading B3 of O=[N+]([O-])c1ccc(Nc2c(F)c(F)nc(F)c2F)c([N+](=O)[O-])c1 [Compound 15] , please.
3 (0 to 5)

Recorded Antibacterial activity grading B3 of COc1nc(F)c(Cl)c(Nc2c(F)c(F)c(C#N)c(F)c2F)c1Cl [Compound 21] , please.
3 (0 to 5)

Recorded Antibacterial activity grading B3 of O=[N+]([O-])c1ccc(Nc2c(Cl)c(F)nc(F)c2Cl)c([N+](=O)[O-])c1 [Compound 1] , please.
3 (0 to 5)

Recorded Antibacterial activity grading B3 of N#Cc1c(F)c(F)c(Nc2c(Cl)c(F)nc(F)c2Cl)c(F)c1C#N [Compound 33] , please.
3 (0 to 5)

Recorded Antibacterial activity grading B3 of O=[N+]([O-])c1cc(Cl)cc([N+](=O)[O-])c1Nc1c(Cl)c(F)nc(F)c1Cl [Compound 29] , please.
3 (0 to 5)

Recorded Antibacterial activity grading B3 of Fc1nc(F)c(Cl)c(Nc2c(F)c(F)c(F)c3c(F)c(F)c(F)c(F)c23)c1Cl [Compound 20] , please.
3 (0 to 5)

Recorded Antibacterial activity grading B3 of N#Cc1cc([N+](=O)[O-])c(Nc2c(Cl)c(F)nc(F)c2Cl)c([N+](=O)[O-])c1 [Compound 34] , please.
2 (6 to 25)

Recorded Antibacterial activity grading B3 of O=[N+]([O-])c1ccc(Nc2c(Cl)c(Cl)nc(Cl)c2Cl)c(C(F)(F)F)c1 [Compound 41] , please.
2 (6 to 25)

Recorded Antibacterial activity grading B3 of O=[N+]([O-])c1cc([N+](=O)[O-])c(Nc2c(Cl)c(F)nc(F)c2Cl)cc1F [Compound 6] , please.
3 (0 to 5)

Recorded Antibacterial activity grading B3 of O=[N+]([O-])c1cc(Br)c(Nc2c(Cl)c(F)nc(F)c2Cl)c([N+](=O)[O-])c1 [Compound 40] , please.
3 (0 to 5)

Recorded Antibacterial activity grading B3 of O=[N+]([O-])c1cc([N+](=O)[O-])c(Nc2c(Cl)c(Cl)nc(Cl)c2Cl)cc1F [Compound 35] , please.
0 (61 to 100)

Recorded Antibacterial activity grading B3 of O=[N+]([O-])c1cc(Cl)c(Nc2c(Cl)c(F)nc(F)c2Cl)cc1Cl [Compound 24] , please.
3 (0 to 5)

Recorded Antibacterial activity grading B3 of O=[N+]([O-])c1ccc(Nc2c(Cl)c(F)nc(Cl)c2Cl)c(C(F)(F)F)c1 [Compound 44] , please.
3 (0 to 5)

====

Reported Damage to plants, pre-emergence by item:
# System: Wheat
# MEASUREMENT_NOTES: Herbicidal test, pre- and post-emergence
# Format: in vivo
# TEST_SETTINGS: 10 lb/acre (11.2 kg/ha); scale 0 (no effect) to 3 (complete kill)
A bare number is all that is needed in reply.

>>> df
                              line_notation  endpoint_result
0  O=[N+]([O-])c1ccc(Nc2c(Cl)c(F)nc(F)c2Cl)c(C(F)(F)F)c1                2
1  N#Cc1c(F)c(F)c(Nc2c(Cl)c(F)nc(F)c2Cl)c(F)c1F                3
2  Fc1nc(F)c(Cl)c(Nc2c(F)c(F)c(F)c(F)c2F)c1Cl                0

Here is the next item to consider.
Recorded Damage to plants, pre-emergence of O=[N+]([O-])c1c(F)c(F)c(Nc2c(Cl)c(F)nc(F)c2Cl)c(F)c1F , please.
3

====

# Tested on: Musca domestica (houseflies)
# MEASUREMENT_NOTES: Pest toxicity test, contact test
# Type: in vivo
# TEST_SETTINGS: 0.1% by weight; milk/sugar; 2 days; flies sprayed directly
Reported Mortality grading (kill), contact test by item:

Record excerpt, results attached:
>>> print(df.to_string())
                                   compound                 system_tested                      endpoint_result
0  O=[N+]([O-])c1cc(Cl)c(Nc2c(Cl)c(F)nc(F)c2Cl)cc1Cl [Compound 24]  Musca domestica (houseflies)       1 (1 represents 30 - 49% kill)
1  O=[N+]([O-])c1ccc(Nc2c(F)c(F)nc(F)c2Cl)c([N+](=O)[O-])c1 [Compound 38]  Musca domestica (houseflies)  0 (O represents less than 30% kill)
2  Fc1nc(F)c(Cl)c(Nc2c(F)c(F)c(F)c(F)c2F)c1Cl [Compound 10]  Musca domestica (houseflies)  0 (O represents less than 30% kill)
3  Fc1nc(F)c(Cl)c(Nc2c(Cl)c(Cl)c(Cl)c(Cl)c2Cl)c1Cl [Compound 9]  Musca domestica (houseflies)       3 (3 represents over 90% kill)
4  CNC(=O)N(c1c(F)c(F)c(C#N)c(F)c1F)c1c(Cl)c(F)nc(OC)c1Cl [Compound 46]  Musca domestica (houseflies)  0 (O represents less than 30% kill)

Recorded Mortality grading (kill), contact test of O=[N+]([O-])c1ccc(Nc2c(Cl)c(F)nc(F)c2Cl)c([N+](=O)[O-])c1 [Compound 1] , please.
0 (O represents less than 30% kill)

Recorded Mortality grading (kill), contact test of Fc1nc(F)c(Cl)c(Nc2c(F)c(F)c(Br)c(F)c2F)c1Cl [Compound 30] , please.
0 (O represents less than 30% kill)

Recorded Mortality grading (kill), contact test of O=[N+]([O-])c1ccc(Nc2c(Cl)c(F)nc(F)c2Cl)c(C(F)(F)F)c1 [Compound 5] , please.
0 (O represents less than 30% kill)

====

# System: Piricularia oryzae (rice)
# Assay type: in vivo
# TEST_SETTINGS: 100 ppm spray and drench; 7 days
Reported Amount of disease grading, disease E (Table 4) by item:

Record excerpt, results attached:
                              line_notation              system_tested  endpoint_result
0  N#Cc1cc([N+](=O)[O-])ccc1Nc1c(Cl)c(F)nc(F)c1Cl  Piricularia oryzae (rice)    0 (61 to 100)
1  CN(C)S(=O)(=O)c1cc(Cl)c(Nc2c(Cl)c(F)nc(F)c2Cl)cc1Cl  Piricularia oryzae (rice)    0 (61 to 100)
2  O=[N+]([O-])c1ccc(Nc2c(Cl)c(F)nc(F)c2Cl)cc1C(F)(F)F  Piricularia oryzae (rice)     1 (26 to 60)
3  Fc1nc(F)c(Cl)c(Nc2c(F)c(F)c(Br)c(F)c2F)c1Cl  Piricularia oryzae (rice)    0 (61 to 100)
4  O=[N+]([O-])c1ccc(Nc2c(Cl)c(F)nc(Cl)c2Cl)c(C(F)(F)F)c1  Piricularia oryzae (rice)    0 (61 to 100)
5  O=[N+]([O-])c1cc(Br)c(Nc2c(Cl)c(F)nc(F)c2Cl)c([N+](=O)[O-])c1  Piricularia oryzae (rice)     1 (26 to 60)
6  O=[N+]([O-])c1cc([N+](=O)[O-])c(Nc2c(F)c(F)nc(F)c2F)cc1F  Piricularia oryzae (rice)     1 (26 to 60)
7  N#Cc1c(F)c(F)c(Nc2c(Cl)c(Cl)nc(Cl)c2Cl)c(F)c1F  Piricularia oryzae (rice)    0 (61 to 100)
8  N#Cc1c(F)c(F)c(Nc2c(Cl)c(F)nc(F)c2Cl)c(F)c1C#N  Piricularia oryzae (rice)       3 (0 to 5)
9  O=[N+]([O-])c1ccc(Nc2c(F)c(F)nc(F)c2Cl)c([N+](=O)[O-])c1  Piricularia oryzae (rice)      2 (6 to 25)

# query: Amount of disease grading, disease E (Table 4) | item O=[N+]([O-])c1cc(Cl)c(Nc2c(Cl)c(F)nc(F)c2Cl)cc1Cl | system: Piricularia oryzae (rice)
0 (61 to 100)

# query: Amount of disease grading, disease E (Table 4) | item O=[N+]([O-])c1cc([N+](=O)[O-])c(Nc2c(Cl)c(Cl)nc(Cl)c2Cl)cc1F | system: Piricularia oryzae (rice)
2 (6 to 25)

# query: Amount of disease grading, disease E (Table 4) | item O=[N+]([O-])c1cc([N+](=O)[O-])c2ccccc2c1Nc1c(Cl)c(F)nc(F)c1Cl | system: Piricularia oryzae (rice)
0 (61 to 100)
